Test Details: PhoP-dependent GFP reporter repression – Salmonella Typhimurium, primary screen (AID 1863);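 also: 0% = low Mg2+ inducing control and 100% = high Mg2+ repressing control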
Condition Parameters: S. Typhimurium PhoP-regulated promoter GFP reporter, 4 h; at 50 µM; active compounds read high
About 480 (0.16%) of roughly 300,000 compounds were called active. Not all results are given here. Measured potencies and affinities stand elsewhere.
Value Type: inhibition (%)

Molecule | Value Type | Measured Value
Cc1ccc(-c2nn(-c3ccccc3)cc2C(=O)NCC(c2cccs2)N2CCOCC2)cc1 (stereo unspecified) | inhibition | -6.92
CC1=C(C)C(=O)C(N2CCOCC2)=CC1=O | inhibition | -8.01
O=C(CCCN1C(=O)c2ccccc2C1=O)Nc1ccccn1 | inhibition | -1.86
Cc1ccc(NC(=S)NC(CO)C(O)c2ccc([N+](=O)[O-])cc2)cc1 (stereo unspecified) | inhibition | 8.17
O=C(O)c1cc(S(=O)(=O)NC(CO)C(O)c2ccc([N+](=O)[O-])cc2)ccc1Br (stereo unspecified) | inhibition | 8.08
Cc1ccc(C2N(c3ccc(Cl)cc3)C(=O)N3CCCN23)cc1 (stereo unspecified) | inhibition | -0.36
Cc1ccc(N2CC(C(=O)Nc3ccccc3C(=O)NC3CCCCC3)CC2=O)cc1 (stereo unspecified) | inhibition | 3.33
O=C(COC(=O)c1cc[n+]([O-])cc1)Nc1c(Cl)cccc1C(F)(F)F | inhibition | 0.58
Cc1cc(C)nc(N/C(=N\S(=O)(=O)Cc2ccccc2)Nc2cccc(Cl)c2C)n1 | inhibition | 8.54
CCCOc1ccc(C(=O)O)cc1 | inhibition | -6.14
CCn1c(C(=O)O)c(CC(=O)Nc2ccccc2OC)c2ccccc21 | inhibition | -3.77
Cc1ncc(CSCC(=O)Nc2cc(C(F)(F)F)ccc2Cl)c(CO)c1O | inhibition | 3.52
CC(=O)c1cccc(NC(=O)c2sc3nc4n(c(=O)c3c2C)CCCCC4)c1 | inhibition | 11.4
CS(=O)(=O)c1ccc(C(=O)NC(Cc2ccccc2)c2ccccc2)cc1 (stereo unspecified) | inhibition | 4.54
CCOC(=O)N1CCN(S(=O)(=O)c2ccc(C(=O)N(CCN(C)C)c3nc4ccc(Cl)cc4s3)cc2)CC1 | inhibition | 14
CC1CCCCC1NC(=O)C1CCN(C(=O)c2sccc2-n2cccc2)CC1 (stereo unspecified) | inhibition | 6.9
Cc1ccc(C(=O)OC(C)C(=O)NC2CCCCC2C)cc1S(=O)(=O)N1CCOCC1 (stereo unspecified) | inhibition | -5.67
COc1ccc(C(=O)CCC(=O)NCCc2c[nH]c3ccccc23)cc1 | inhibition | 8.52
CCCC(=O)N(c1ccc(OCC)cc1)C1C=CS(=O)(=O)C1 (stereo unspecified) | inhibition | -5.2
CCOc1ccc(C(=O)C(CCC(CN(C)C)C(=O)c2ccc(OCC)cc2)CN(C)C)cc1 (stereo unspecified) | inhibition | 17.1
CCOC(=O)CSc1nc2c(c(=O)n1-c1ccc(OCC)cc1)SCC2 | inhibition | -4.68

====

Listed next: entries and their corresponding inhibition.
Test Details: PhoP-dependent GFP reporter repression – Salmonella Typhimurium, primary screen (AID 1863);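 also: 0% = low Mg2+ inducing control and 100% = high Mg2+ repressing control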
Condition Parameters: S. Typhimurium PhoP-regulated promoter GFP reporter, 4 h; at 50 µM; active compounds read high
In all, about 300,000 compounds went through this assay and about 480 (0.16%) were called active. The list is a sample of the results. Results with a measured potency or affinity are listed apart.

Compound | inhibition (%)
CCOC(=O)N/N=C\c1cccc(OC)c1OC/C=C/c1ccccc1 | 1.25
Cc1ccc(C)c(N(CC(=O)NC(C)C)C(=O)CCC(=O)Nc2ccccn2)c1 | -3.9
Cc1ccc(CCNS(=O)(=O)c2cc(Br)cnc2N)cc1 | 1.18
O=C(CSc1ccccn1)N/N=C/c1cccc([N+](=O)[O-])c1 | 0.8
O=C(O)CC(Cc1ccccc1)C(=O)Nc1ccc([N+](=O)[O-])cc1 (stereo not drawn) | -0.18
COc1ccc(CNc2nc(NCc3ccc(OC)cc3)n(S(C)(=O)=O)n2)cc1 | -5.9
COc1ccc(Cc2c(N)nc(N)nc2N)cc1 | 2.89
CC(C)Oc1ccc(Cc2cnc(=S)[nH]c2N)cc1 | 5.16
O=C(c1ccc(Cl)cc1)c1ccc(Oc2cc(NN3CCCCC3)c([N+](=O)[O-])cc2[N+](=O)[O-])cc1 | 6.36
O=C(CN(Cc1ccc(Br)cc1)S(=O)(=O)c1ccccc1)NCC1CCCO1 (stereo not drawn) | -5.51
O=[N+]([O-])c1ccc(C(O)C(CO)NC(=S)Nc2ccccc2)cc1 (stereo not drawn) | -9.91
O=C(Cc1ccccc1)NC(C(=O)O)C(O)c1ccc([N+](=O)[O-])cc1 (stereo not drawn) | 2.69
COc1ccc(-c2cc3ccccc3n2CC(O)Cn2nc(C)cc2C)cc1 (stereo not drawn) | 1.53
COc1cc(C)c(Cc2cnc(N)nc2N)cc1OC | -1.03
CCN(CCN1CCCC1)C(=O)C1CCC(=O)N(CCCN2CCOCC2)C1 (stereo not drawn) | 2.18
Cc1ccc(CNCCC2=CCCCC2)cc1 | -46.6
Cc1ccc(S(=O)(=O)Oc2ccc(/C=N/NC(=O)c3nn(C)cc3Cl)cc2)cc1 | 1.65
CCCOc1ccc(Cc2nc(N)nc(N)n2)cc1 | 20.1
CSc1ncccc1C(=O)Nc1nc2ccc(Oc3ccccc3)cc2s1 | -15.8
NC(CO)C(O)c1ccc([N+](=O)[O-])cc1 (stereo not drawn) | 2.92
O=C(NCc1nc(-c2ccc(Cl)cc2)no1)c1ccco1 | -1.48
CC1CCN(Cc2ccc(-c3nnn(CC(=O)Nc4ccccc4Cl)n3)cc2)CC1 | -3.86
COC(=O)Nc1ccc(S(=O)(=O)N2CCCCCC2)cc1 | -7.01
